The reported measurements were obtained from ChEMBL document CHEMBL1124171.

target: Serotonin 1 (5-HT1) receptor (Rattus norvegicus, UniProt P28564+P30940+P19327+P28565); test: Tested for its binding affinity towards 5-hydroxytryptamine 1 receptor in rat cortical membrane homogenates using radioligand ([3H]5-HT) binding assay.; assay type: cell membranes
experimentalEndpoint: log10 IC50 (log10 of the value in nM)
Record value = log10 of IC50 given in nM.

compound	experimentalEndpoint	valueMeasured
CN1C[C@H](CSc2ccccn2)C=C2c3cccc4c3[C@@H](CN4)C[C@H]21	log10 IC50	0.48
C=C1C=C2c3cccc4[nH]cc(c34)C[C@H]2N(C)C1	log10 IC50	1.30
CN1C[C@H](CO)C=C2c3cccc4[nH]cc(c34)C[C@H]21	log10 IC50	1.18
COC(=O)[C@@H]1C=C2c3cccc4c3[C@@H](CN4)C[C@H]2N(C)C1	log10 IC50	1.60
C[C@@H]1C=C2c3cccc4[nH]cc(c34)C[C@H]2N(C)C1	log10 IC50	0.70
CN1C[C@H](CC#N)C=C2c3cccc4c3[C@@H](CN4)C[C@H]21	log10 IC50	1.30

Test item CN1C[C@H](CSc2ccccc2)C=C2c3cccc4c3[C@@H](CN4)C[C@H]21 ; Serotonin 1 (5-HT1) receptor (Rattus norvegicus, UniProt P28564+P30940+P19327+P28565); reported log10 IC50 was 0.90

Test item C[C@H]1C=C2c3cccc4[nH]cc(c34)C[C@H]2N(C)C1 ; Serotonin 1 (5-HT1) receptor (Rattus norvegicus, UniProt P28564+P30940+P19327+P28565); reported log10 IC50 was 1.90

Test item CC1=C[C@@H]2c3cccc4[nH]cc(c34)C[C@H]2N(C)C1 [AGROCLAVINE] ; Serotonin 1 (5-HT1) receptor (Rattus norvegicus, UniProt P28564+P30940+P19327+P28565); reported log10 IC50 was 2.15

Test item CCCN1C[C@H](C)C=C2c3cccc4c3[C@@H](CN4)C[C@H]21 ; Serotonin 1 (5-HT1) receptor (Rattus norvegicus, UniProt P28564+P30940+P19327+P28565); reported log10 IC50 was 2.38

Test item C[C@@H]1C=C2c3cccc4c3[C@H](C[C@H]2N(C)C1)CN4C ; Serotonin 1 (5-HT1) receptor (Rattus norvegicus, UniProt P28564+P30940+P19327+P28565); reported log10 IC50 was 2.20

---

system: Rattus norvegicus; assay: Minimum effective dose required to increase (MED) corticosterone in rat serum, sc; format: functional; details: read-out: MED
This section presents compounds with their documented minimal effective dose values.
# number only, unit mg/kg dropped from output

Check out these entries, answers already filled in.
chemSmiles	minimal effective dose (mg/kg)
CN1C[C@H](CC#N)C=C2c3cccc4c3[C@@H](CN4)C[C@H]21	0.1
CN1C[C@H](CO)C=C2c3cccc4c3[C@@H](CN4)C[C@H]21	0.1
CSC[C@@H]1C=C2c3cccc4c3[C@@H](CN4)C[C@H]2N(C)C1	1
C[C@H]1C=C2c3cccc4c3[C@@H](CN4)C[C@H]2N(C)C1	0.003

// C[C@@H]1C=C2c3cccc4c3[C@@H](CN4)C[C@H]2N(C)C1 : minimal effective dose value = 0.1

---

This section presents compounds with their documented IC50 values.
molecular target: Serotonin 2 (5-HT2) receptor (Rattus norvegicus, UniProt P30994+P08909+P14842); assay: Binding affinity at 5-hydroxytryptamine 2 receptor from rat frontal cortex homogenates by [3H]-spiperone displacement.; type: tissue-based
# number only, unit nM dropped from output

Check out these entries, answers already filled in.
compound	studyTarget	IC50, nM
CSC[C@@H]1C=C2c3cccc4c3[C@@H](CN4)C[C@H]2N(C)C1	Serotonin 2 (5-HT2) receptor (Rattus norvegicus, UniProt P30994+P08909+P14842)	1330
CN1C[C@H](CO)C=C2c3cccc4[nH]cc(c34)C[C@H]21	Serotonin 2 (5-HT2) receptor (Rattus norvegicus, UniProt P30994+P08909+P14842)	160

// CC1=C[C@@H]2c3cccc4c3[C@@H](CN4)C[C@H]2N(C)C1 : IC50 value = 1850
